- assayTarget: T. brucei GAPDH (Trypanosoma brucei brucei, UniProt P22512)
- Sequence (P22512 whole entry): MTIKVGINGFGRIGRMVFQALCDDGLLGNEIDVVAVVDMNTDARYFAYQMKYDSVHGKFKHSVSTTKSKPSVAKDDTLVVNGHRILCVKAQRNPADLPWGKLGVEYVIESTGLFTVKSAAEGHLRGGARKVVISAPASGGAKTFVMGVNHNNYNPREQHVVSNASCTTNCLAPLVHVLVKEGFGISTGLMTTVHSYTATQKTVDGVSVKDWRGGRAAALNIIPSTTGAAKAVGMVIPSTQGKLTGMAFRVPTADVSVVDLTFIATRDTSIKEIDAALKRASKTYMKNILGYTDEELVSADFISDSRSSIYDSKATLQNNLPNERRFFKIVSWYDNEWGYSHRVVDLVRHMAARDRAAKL
- protocolDescription: Inhibition of T. brucei GAPDH
- Format: biochemical
- experimentalConditions: fixed concentration of 10 μM; data not shown; read-out: decrease of GAPDH activity
Each record here notes measured inhibition at 10 µM.

Illustrative cases are given below, each with its answer.
# compound, inhibition at 10 µM
rows = [
    ("CCCCCCCCCCCCCCCc1cccc(OC2=CC(=O)c3c(OC)cccc3C2=O)c1 [Compound 15]", "< 15%"),
    ("CCCCCCCCCCCCCCCc1cccc(OC2=CC(=O)c3cccc(O)c3C2=O)c1 [Compound 16]", "< 15%"),
]

Next compound, please.
[ask] Fill in inhibition at 10 µM for record CCCCCCCCCCCCCCCc1cccc(OC2=CC(=O)c3ccccc3C2=O)c1 [Compound 13]
[reply] < 15%

---

- System: T. congolense IL3000 WT
- protocolDescription: In vitro drug susceptibility assay (resazurin), T. congolense
- Format: cell-based
- experimentalConditions: Trypanosoma congolense, bloodstream forms, read-out: EC50 T. c. IL3000 WT
Below: a set of entries, each annotated with reported pEC50.
Hey, just a heads up that pEC50 is the negative log base 10 of the concentration in molar.

Illustrative cases are given below, each with its answer.
# molecule, assayTarget, pEC50
rows = [
    ("O=C1C=C(Oc2ccccc2)C(=O)c2ccccc21 [Compound 4, 2‐phenoxynaphthalene‐1,4‐dione, reference compound]", "T. congolense IL3000 WT", 3.97),
    ("COc1cccc2c1C(=O)C=C(Oc1cccc(CCCCCCCCO)c1)C2=O [Compound 20]", "T. congolense IL3000 WT", 4.73),
]

// below: pEC50 requested for another molecule
[ask] Respond only with pEC50 recorded for O=C1C(Oc2cccc(CCCCCCCCO)c2)=CC(=O)c2c(O)cccc21 [Compound 22]
[reply] 4.36

---

Consider the following molecules and their measured pEC50 readings.
- System: T. b. brucei 427WT bloodstream trypomastigotes
- protocolDescription: microbe, parasite or virus in culture
- Format: cell-based, Trypanosoma brucei brucei
- experimentalConditions: Trypanosoma brucei; Table 2, 5 mM glycerol in medium; average±SEM of three; read-out: EC50 s427WT + 5 mM glycerol
Give only the number. pEC50 is defined as minus log10 of concentration in molar units.

Some solved cases for reference:
# structureNotation, measuredParameter, obsValue
records = [
    ("COc1cccc2c1C(=O)C(Oc1cccc(CCCCCCCCO)c1)=CC2=O", "pEC50", 4.79),
    ("O=C1C=C(Oc2cccc(CCCCCCCCO)c2)C(=O)c2ccccc21", "pEC50", 4.51),
    ("O=C1C(Oc2cccc(CCCCCCCCO)c2)=CC(=O)c2c(O)cccc21", "pEC50", 4.55),
]

Continue with the molecule presented below.
[ask] Fill in reported pEC50 for this entry: COc1cccc2c1C(=O)C=C(Oc1cccc(CCCCCCCCO)c1)C2=O
[reply] 4.80

---

Entries annotated with measured RF, resistance factor relative to WT (B48)
- Tested on: T. b. brucei B48
- protocolDescription: microbe, parasite or virus in culture
- Assay type: cell-based, Trypanosoma brucei brucei
- experimentalConditions: B48 versus 427WT
Answer with a number only.

Examples from the recorded data:
# compound, obsValue
measured = [
    ("O=C1C=C(Oc2cccc(CCCCCCCCO)c2)C(=O)c2c(O)cccc21 [Compound 21]", 0.91),
    ("COc1cccc2c1C(=O)C(Oc1cccc(CCCCCCCCO)c1)=CC2=O [Compound 19]", 0.98),
    ("COc1cccc2c1C(=O)C=C(Oc1cccc(CCCCCCCCO)c1)C2=O [Compound 20]", 1.1),
]

[ask] Give the reported RF, resistance factor relative to WT (B48) for this compound. N=C(N)c1ccc(OCCCCCOc2ccc(C(=N)N)cc2)cc1 [PMD, Pentamidine, reference compound]
[reply] 339

[ask] Output RF, resistance factor relative to WT (B48) of O=C1C=C(Oc2ccccc2)C(=O)c2ccccc21 [Compound 4, 2‐phenoxynaphthalene‐1,4‐dione, reference compound]
[reply] 1.3

[ask] Supply measured RF, resistance factor relative to WT (B48) of O=C1C(Oc2cccc(CCCCCCCCO)c2)=CC(=O)c2c(O)cccc21 [Compound 22] in your reply.
[reply] 0.91

[ask] Using the record for O=C1C=C(Oc2cccc(CCCCCCCCO)c2)C(=O)c2ccccc21 [Compound 18] , state its measured RF, resistance factor relative to WT (B48).
[reply] 0.95
